Answer each item with its documented Ratio.
test: It is the ratio, measured as saluretic activity in the dog as concentration of Cl- in urinary excretion (dose 1.56 mg/Kg, perorally) to that of (Na+)+(K+); assay type: functional, Urine

Provide measured Ratio value, entry: N.NS(=O)(=O)c1cc(S(=O)(=O)O)c(NCc2ccccc2)cc1Oc1ccccc1
1.1

Give me measured Ratio, please, for this compound: NS(=O)(=O)c1cc(S(=O)(=O)[O-])c(NCc2cccs2)cc1Oc1ccccc1.[K+]
0.95

Please look at this compound and report its Ratio: NCc1ccccc1.NS(=O)(=O)c1cc(S(=O)(=O)O)c(NCc2ccccc2)cc1Cl
1.05

Could you please provide reported Ratio for NCc1cccs1.NS(=O)(=O)c1cc(S(=O)(=O)O)c(NCc2cccs2)cc1Cl ? Thanks!
0.95

Report measured Ratio; entry is NS(=O)(=O)c1cc(S(=O)(=O)[O-])c(NCCc2ccco2)cc1Oc1ccccc1.[K+]
1.1

###

system: Canis familiaris; test: Saluretic activity in the dog measured as concentration of Cl - in urinary excretion (2 animals/dose) at (dose 1.56 mg/Kg, po); assay type: functional, Canis lupus familiaris, Urine
observed_property: Saldiuretic activity (m equiv 6hr-1 kg-1)
Dear colleague, please return just the value in m equiv 6hr-1 kg-1, with no unit written.

Report measured Saldiuretic activity on Canis familiaris; entry: NS(=O)(=O)c1cc(S(=O)(=O)[O-])c(NCc2ccco2)cc1S(=O)(=O)C1CCCCC1.[Na+]
6.15

Consider the molecule CCCCSc1cc(NCc2ccco2)c(S(=O)(=O)[O-])cc1S(N)(=O)=O.[K+] tested on Canis familiaris; state its Saldiuretic activity.
1.43

Report the value of Saldiuretic activity obtained on Canis familiaris for CN(c1ccccc1)c1cc(NCCc2ccco2)c(S(=O)(=O)[O-])cc1S(N)(=O)=O.[K+] .
5.81

Provide Saldiuretic activity, tested on Canis familiaris, for NS(=O)(=O)c1cc(S(=O)(=O)[O-])c(NCc2cccs2)cc1S(=O)(=O)C1CCCCC1.[Na+] .
6.39

Recall the reported Saldiuretic activity of NS(=O)(=O)c1cc(S(=O)(=O)[O-])c(NCc2ccco2)cc1[S+]([O-])C1CCCCC1.[Na+] (configuration not stated) on Canis familiaris and write it down.
1.27

Look up and report Saldiuretic activity, with Canis familiaris as system, for CN(c1ccccc1)c1cc(NCc2ccccc2)c(S(=O)(=O)[O-])cc1S(N)(=O)=O.[Na+]
7.34

Report the value of Saldiuretic activity obtained on Canis familiaris for CCCC[S+]([O-])c1cc(NCc2ccco2)c(S(=O)(=O)[O-])cc1S(N)(=O)=O.[Na+] (configuration not stated) .
1.43

Quote Saldiuretic activity with test system Canis familiaris for CN(c1ccccc1)c1cc(NCc2cccs2)c(S(=O)(=O)[O-])cc1S(N)(=O)=O.[Na+]
7.03

Give Saldiuretic activity for this entry on Canis familiaris: NS(=O)(=O)c1cc(S(=O)(=O)[O-])c(NCc2ccco2)cc1S(=O)(=O)c1ccccc1.[K+]
1.09

Quote Canis familiaris Saldiuretic activity for entry NS(=O)(=O)c1cc(S(=O)(=O)[O-])c(NCc2ccco2)cc1SC1CCCCC1.[K+] .
0.32

For Canis familiaris, give Saldiuretic activity of the listed molecule: NS(=O)(=O)c1cc(S(=O)(=O)[O-])c(NCc2ccccc2)cc1S(=O)(=O)C1CCCCC1.[Na+]
3.94

Look up Canis familiaris data: Saldiuretic activity of CCCCS(=O)(=O)c1cc(NCc2ccco2)c(S(=O)(=O)[O-])cc1S(N)(=O)=O.[Na+] , then report it.
5.78

###

test: Dissociation constant, pK1 was determined using sodium salt
observed_property: pKa
Keep it simple and answer with nothing but the number.

# return recorded pKa for entry CN(c1ccccc1)c1cc(NCc2ccco2)c(S(=O)(=O)[O-])cc1S(N)(=O)=O.[Na+]
1

Quickly give me recorded pKa for NS(=O)(=O)c1cc(S(=O)(=O)[O-])c(NCc2ccco2)cc1Oc1ccccc1.[Na+]
0.5

###

tested on: Canis familiaris; experiment: Saluretic activity in the dog measured as concentration of Cl - in urinary excretion (2 animals/dose) at (dose 1.56 mg/Kg, perorally); format: functional, Canis lupus familiaris, Urine
# cutoff 5 m equiv 6hr-1 kg-1 applies to Saldiuretic activity; >= gives Y, < gives N

Hi team, for NS(=O)(=O)c1cc(S(=O)(=O)[O-])c(NCc2ccco2)cc1Oc1ccccc1.[Na+] , is the recorded Saldiuretic activity at or above 5 m equiv 6hr-1 kg-1?
Y

Is it the case that CN(c1ccccc1)c1cc(NCc2ccco2)c(S(=O)(=O)[O-])cc1S(N)(=O)=O.[Na+] has Saldiuretic activity reaching or exceeding 5 m equiv 6hr-1 kg-1?
Y

Please tell me: is the compound NS(=O)(=O)c1cc(S(=O)(=O)[O-])c(NCCc2ccco2)cc1Oc1ccccc1.[K+] at or over 5 m equiv 6hr-1 kg-1 in terms of Saldiuretic activity?
N

Does Saldiuretic activity meet or surpass 5 m equiv 6hr-1 kg-1 for N.NS(=O)(=O)c1cc(S(=O)(=O)O)c(NCc2ccccc2)cc1Oc1ccccc1 ?
N

Hi team, for NS(=O)(=O)c1cc(S(=O)(=O)[O-])c(NCc2cccs2)cc1Oc1ccccc1.[K+] , is the recorded Saldiuretic activity at or above 5 m equiv 6hr-1 kg-1?
N
